The origin of these recorded values is ChEMBL document CHEMBL4229376.

assay: Drug level in Swiss mouse blood infected with Trypanosoma brucei brucei Squib 427 at 25 mg/kg, po bid for 5 days measured after 0.5 hrs after last dose by UPLC/MS/ESI analysis; assay type: ADME, organism-based; settings: whole blood, read-out: Drug uptake
quantity: concentration at 0.5 h (µg/mL)
State the answer as a number, implicitly in µg/mL.

Record request: concentration at 0.5 h value, item Nc1nc(Nc2ccc(F)cc2)nc(Oc2ccc(F)cc2)n1
2.09

* * *

test: Protein binding in 10% FBS in Trypanosoma brucei culture medium at 2 uM after 6 hrs by equilibrium dialysis and LC-MS analysis; type: ADME, cell-free, Bos taurus, Serum; settings: cattle, read-out: PB
quantity: fraction unbound at 6 h, 2 µM

Record request: fraction unbound at 6 h, 2 µM value, item Nc1nc(Nc2ccc(F)cc2)nc(Oc2ccc(F)cc2)n1
0.5 to 0.51

* * *

assay: Drug uptake in Swiss mouse blood at 50 mg/kg, po administered as single dose after 1 hr by UPLC/MS/ESI analysis; assay type: ADME, organism-based; conditions: whole blood, read-out: Drug uptake
quantity: concentration at 1 h

Record request: concentration at 1 h value, item Nc1nc(Nc2ccc(F)cc2)nc(Oc2ccc(F)cc2)n1
1730 ng/mL

* * *

test: Drug metabolism in human plasma assessed as parent compound remaining after 60 mins by UPLC/MS/ESI analysis; assay type: ADME, cell-free; details: read-out: Stability
quantity: remaining at 1 h (%)
State the answer as a number, implicitly in %.

Record request: remaining at 1 h value, item Cc1cc(C)c(Oc2nc(N)nc(Nc3ccc(F)cc3)n2)c(C)c1
115

Record request: remaining at 1 h value, item Cc1ccc(Oc2nc(N)nc(Nc3ccc(F)cc3)n2)c(Cl)c1
117

Record request: remaining at 1 h value, item Cc1ccc(Oc2nc(N)nc(Nc3ccc(F)cc3)n2)cc1
101

Record request: remaining at 1 h value, item Nc1nc(Nc2ccc(F)cc2)nc(Oc2ccc(F)cc2)n1
88

* * *

assay: Drug level in Swiss mouse blood infected with Trypanosoma brucei brucei Squib 427 at 25 mg/kg, po bid for 5 days measured after 1 hr after last dose by UPLC/MS/ESI analysis; format: ADME, organism-based; conditions: whole blood, read-out: Drug uptake
quantity: concentration at 1 h (ng/mL)
State the answer as a number, implicitly in ng/mL.

Record request: concentration at 1 h value, item Nc1nc(Nc2ccc(F)cc2)nc(Oc2ccc(F)cc2)n1
2410

* * *

assay: Drug metabolism in mouse liver microsomes assessed as CYP450 mediated compound […] by measuring parent compound remaining at 5 uM after 15 mins in presence of NADPH by UPLC/MS/ESI analysis; format: ADME; conditions: read-out: Stability
quantity: remaining at 0.25 h, 5 µM (%)
State the answer as a number, implicitly in %.

Record request: remaining at 0.25 h, 5 µM value, item Nc1nc(Nc2ccc(F)cc2)nc(Oc2ccc(F)cc2)n1
76

Record request: remaining at 0.25 h, 5 µM value, item Cc1ccc(Oc2nc(N)nc(Nc3ccc(F)cc3)n2)c(Cl)c1
25

Record request: remaining at 0.25 h, 5 µM value, item Cc1ccc(Oc2nc(N)nc(Nc3ccc(F)cc3)n2)cc1
57

Record request: remaining at 0.25 h, 5 µM value, item Cc1cc(C)c(Oc2nc(N)nc(Nc3ccc(F)cc3)n2)c(C)c1
22
